experiment notes: Excitation and fluorescence emission wavelength measurement
Format: physicochemical
Design: unit not given here
run parameters: aqueous solution: 10 mg/mL solution in DMSO diluted 500-fold with purified water
measured parameter: Stokes shift (λem − λex)

CCN1c2ccc(/C=C3/SC(=S)N(CCC(=O)O)C3=O)cc2C2CCCC21 (centres unmarked) = 87
O=C(O)CCN1C(=O)/C(=C\c2ccc3c(c2)C2CCCC2N3c2ccccc2)SC1=S (centres unmarked) [Dye 130] = 78
CC1(C)C(/C=C/c2ccc3c(c2)C2CCCC2N3c2ccc(C=C(c3ccccc3)c3ccccc3)cc2)=[N+](CCC(=O)O)c2ccccc21 (centres unmarked) = 109
CCCCN1C(=O)/C(=c2\s/c(=C/c3ccc4c(c3)C3CCCC3N4c3ccc(OC)cc3)c(=O)n2CC(=O)OCC)SC1=S (centres unmarked) = 77
N#C/C(=C\c1ccc2c(c1)C1CCCC1N2c1ccc(C=C(c2ccccc2)c2ccccc2)cc1)C(=O)O (centres unmarked) [Dye 108] = 121
CSc1ccc(N2c3ccc(/C=C(/C#N)C(=O)O)cc3C3CCCC32)cc1 (centres unmarked) [Dye 135] = 170
COc1ccc(N2c3ccc(/C=C/c4sc5ccccc5[n+]4CC(=O)O)cc3C3CCCC32)cc1 (centres unmarked) = 117
O=C(O)C1=NN(c2ccccc2)C(=O)/C1=C\c1ccc2c(c1)C1CCCC1N2c1ccc(C=C(c2ccccc2)c2ccccc2)cc1 (centres unmarked) = 88

###

Listing of recorded Stokes shift (λem − λex) by entry.
experiment notes: Excitation and fluorescence emission wavelength measurement
Assay type: physicochemical
Set-up: unit not given here
run parameters: aqueous solution: 10 mg/mL solution in DMSO diluted 500-fold with purified water
measured parameter: Stokes shift (λem − λex)

COc1ccc2cc(N3c4ccc(/C=C5/SC(=S)N(CCC(=O)O)C5=O)cc4C4CCCC43)ccc2c1 (stereo not shown) = 128
COc1ccc(N2c3ccc(/C=C4\Oc5ccc(I)cc5C4=O)cc3C3CCCC32)cc1 (stereo not shown) = 150
O=C(O)CC[n+]1c(/C=C/c2ccc3c(c2)C2CCCC2N3c2ccc(C=C(c3ccccc3)c3ccccc3)cc2)sc2ccccc21 (stereo not shown) = 128
COc1ccc(N2c3ccc(/C=c4/s/c(=C5/SC(=S)N(Cc6ccccc6)C5=O)n(CC(=O)O)c4=O)cc3C3CCCC32)cc1 (stereo not shown) = 144
C[n+]1c(/C=c2\s/c(=C/c3ccc4c(c3)C3CCCC3N4c3ccc(C=C(c4ccccc4)c4ccccc4)cc3)c(=O)n2CC(=O)O)sc2ccccc21 (stereo not shown) = 200
CCN1c2ccc(/C=C/c3sc4ccccc4[n+]3CC(=O)O)cc2C2CCCC21 (stereo not shown) = 13
O=C(O)CN1C(=O)/C(=C2C=C/C(=C\c3ccc4c(c3)C3CCCC3N4c3ccccc3)C\2)SC1=S (stereo not shown) = 140

###

experiment notes: Excitation and fluorescence emission wavelength measurement
Format: physicochemical
run parameters: aqueous solution: 10 mg/mL solution in DMSO diluted 500-fold with purified water
measured parameter: Excitation wavelength λex

CCN1C(=O)/C(=c2/s/c(=C/c3ccc4c(c3)C3CCCC3N4c3ccc(C=C(c4ccccc4)c4ccccc4)cc3)c(=O)n2CC(=O)O)SC1=S (stereo not shown) = 551 nm
N#C/C(=C\c1cc(Br)c2c(c1)C1CCCC1N2Cc1cccc(Br)c1)C(=O)O (stereo not shown) = 394 nm
COc1ccc(N2c3ccc(/C=C/C4=[N+](CCC(=O)O)c5ccccc5C4(C)C)cc3C3CCCC32)cc1 (stereo not shown) = 592 nm
COc1ccc(N2c3ccc(/C=c4/s/c(=C5/SC(=S)N(Cc6ccccc6)C5=O)n(CC(=O)O)c4=O)cc3C3CCCC32)cc1 (stereo not shown) = 568 nm
